This collection of values is drawn from patent US20110173718A1.

Reported pest or weed control at 62.5 g/ha values are given for each entry in this list.
- Test system: weeds
- Test protocol: Glasshouse weed control, HST inhibitors alone and with A22, pre-emergence
- Type: in vivo
- Protocol conditions: 336 h, BRAPL, 14 DAT, HST inhibitor rate 62.5 g/ha, read-out: BRAPL Obs, % control score
Your answer should be a plain number; it is taken to be in %.

[[record]]
molecule = "O=c1c(-c2c(Cl)ccc(Cl)c2Cl)c(O)c2nccnc2n1CC(F)F [Compound 2.14]"
endpoint_name = "pest or weed control at 62.5 g/ha"
measured_result = 2

[[record]]
molecule = "Cn1c(=O)c(-c2c(Cl)cccc2C(F)(F)F)c(O)c2nccnc21 [Compound 2.16]"
endpoint_name = "pest or weed control at 62.5 g/ha"
measured_result = 5

[[record]]
molecule = "O=c1c(-c2cc(Cl)ccc2C(F)(F)F)c(O)c2nccnc2n1CC(F)F [Compound 2.19]"
endpoint_name = "pest or weed control at 62.5 g/ha"
measured_result = 10

[[record]]
molecule = "O=c1c(-c2c(F)ccc(Br)c2Cl)c(O)c2cccnc2n1CC(F)F [Compound 2.15]"
endpoint_name = "pest or weed control at 62.5 g/ha"
measured_result = 0

[[record]]
molecule = "O=c1c(-c2c(F)ccc(Br)c2Cl)c(O)c2nccnc2n1CC(F)F [Compound 2.8]"
endpoint_name = "pest or weed control at 62.5 g/ha"
measured_result = 1


Turning now to a further record.
Lookup: Please give measured pest or weed control at 62.5 g/ha of the following entry: O=c1c(-c2c(F)ccc(F)c2Cl)c(O)c2nccnc2n1CC(F)(F)F [Compound 2.17]
Found: 0
